- Test system: α-glucosidase
- assayProcedure: α-Glucosidase enzyme kinetics (Lineweaver–Burk and Dixon plots)
- Assay type: biochemical, Saccharomyces cerevisiae
- appliedConditions: Lineweaver–Burk plots; substrate pNPG
outcomeMeasure: α-Glucosidase Inhibition Mode

CC(C)=CCc1c(O)ccc(C(=O)[C@H]2[C@@H](c3c(O)cc(-c4cc5ccc(O)cc5o4)cc3O)C=C(C)C[C@@H]2c2ccc(O)cc2O)c1O [Chalcomoracin (8), chalcomoracin] : Mixed
Oc1cc(O)cc(-c2cc3cc4c(cc3o2)OC(c2cc(O)cc(O)c2)C(c2ccc(O)cc2O)O4)c1 (stereo not shown) [Austrafuran C (6), austrafuran C] : Mixed
CC(C)=CCc1c(O)ccc(C23Oc4cc(O)ccc4C4CC(C)=CC(c5c(O)cc(-c6cc7ccc(O)cc7o6)cc5O2)C43)c1O (stereo not shown) [Mulberrofuran F (7), mulberrofuran F] : Mixed
Oc1cc(O)cc(-c2cc3c4c(c(O)cc3o2)OC(c2ccc(O)cc2O)C4c2cc(O)cc(O)c2)c1 (stereo not shown) [Macrourin B (4), macrourin B] : Mixed
